meta.source: paper PMC2905701

target: CRH-1 receptor (Homo sapiens); test: Binding affinity of h/r-CRH analogues to the CRH-1 receptor; conditions: averages from 3 experiments performed in duplicates
Sequence (P34998 24-415): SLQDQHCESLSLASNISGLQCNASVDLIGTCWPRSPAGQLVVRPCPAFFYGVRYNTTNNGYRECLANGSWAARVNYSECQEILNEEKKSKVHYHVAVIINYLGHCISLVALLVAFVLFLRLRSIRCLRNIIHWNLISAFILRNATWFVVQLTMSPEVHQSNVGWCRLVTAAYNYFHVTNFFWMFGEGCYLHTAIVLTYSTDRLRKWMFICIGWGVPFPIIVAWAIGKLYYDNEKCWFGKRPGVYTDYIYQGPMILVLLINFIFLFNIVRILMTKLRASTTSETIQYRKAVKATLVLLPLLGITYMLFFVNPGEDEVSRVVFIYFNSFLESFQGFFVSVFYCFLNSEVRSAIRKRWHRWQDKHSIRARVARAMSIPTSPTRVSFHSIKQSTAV
Non-standard residues stand in square brackets, D forms with d. No end group written: not given here. *: point of attachment. Aib = CC(C)(N)C(=O)O; Propyl = CCC*
As shown below, each of these substances has a reported pIC50 value.
Conceptually, pIC50 converts a concentration in mol/L into minus its log10.

Look over these answered cases.
[[record]]
substance = "SEEPPISLDLT[dF]H[Aib]LREVLEMARAEQLAQQAHSNRKLMEII-NH2 [Analogue 1, [D-Phe^12, Aib^14]CRH]"
assay_value = 6.65

[[record]]
substance = "SEEPPISLDLT[dF]HLLREVLEMARAEQLAQQAHSNRKLC(Propyl)EII-NH2 [Analogue 4, [D-Phe^12, Cys(Pr)^38]CRH]"
assay_value = 7.46


Read the next record carefully.
Request: # input substance: SEEPPISLDLT[dF]HL[Aib]REVLEMARAEQLAQQAHSNRKLMEII-NH2 [Analogue 2, [D-Phe^12, Aib^15]CRH] ; wanted: its pIC50
Response: 8.08
